System: HT29
Details: 72 h, relative to DMSO; 10 µM
Structures can show the parent of a compound that is named as a salt.
measuredAttribute: Relative cell viability (%) (%)
Your answer should be a plain number; it is taken to be in %.

Incoming: # get_value(readout='Relative cell viability (%)', item= COc1ccc2[nH]c([S+]([O-])Cc3ncc(C)c(OC)c3C)nc2c1 (centres unmarked) )
Outgoing: 88.32

Incoming: # get_value(readout='Relative cell viability (%)', item= Cc1cnc(Nc2ccc(OCCN3CCCC3)cc2)nc1Nc1cccc(S(=O)(=O)NC(C)(C)C)c1 [TG101348 (SAR302503)] )
Outgoing: 16.99

Incoming: # get_value(readout='Relative cell viability (%)', item= C[C@H](CCC(=O)O)[C@H]1CC[C@H]2[C@@H]3CC[C@@H]4C[C@H](O)CC[C@]4(C)[C@H]3C[C@H](O)[C@]12C )
Outgoing: 90.6

Incoming: # get_value(readout='Relative cell viability (%)', item= CC(=O)[C@H]1CC[C@H]2[C@@H]3CC=C4C[C@@H](O)CC[C@]4(C)[C@H]3CC[C@]12C )
Outgoing: 94.21

Incoming: # get_value(readout='Relative cell viability (%)', item= Cc1cccc(C)c1OCC(=O)N[C@@H](Cc1ccccc1)[C@@H](O)C[C@H](Cc1ccccc1)NC(=O)[C@H](C(C)C)N1CCCNC1=O )
Outgoing: 55.61

Incoming: # get_value(readout='Relative cell viability (%)', item= CC(=O)Oc1cccc2c1C(=O)c1c(OC(C)=O)cc(C(=O)O)cc1C2=O )
Outgoing: 73.94

Incoming: # get_value(readout='Relative cell viability (%)', item= Cc1c(Nc2ncccc2C(=O)O)cccc1C(F)(F)F )
Outgoing: 128.5

Incoming: # get_value(readout='Relative cell viability (%)', item= O=c1oc2cc(O)ccc2s1 )
Outgoing: 114.6

Incoming: # get_value(readout='Relative cell viability (%)', item= CC(C)c1nc(CN(C)C(=O)N[C@@H](CCN2CCOCC2)C(=O)N[C@H](CC[C@H](Cc2ccccc2)NC(=O)OCc2cncs2)Cc2ccccc2)cs1 [Cobicistat (GS-9350)] )
Outgoing: 63.59

Incoming: # get_value(readout='Relative cell viability (%)', item= COc1cc(NS(=O)(=O)c2ccc(N)cc2)nc(OC)n1 )
Outgoing: 86.06

Incoming: # get_value(readout='Relative cell viability (%)', item= CCC1(c2ccccc2)C(=O)NCNC1=O )
Outgoing: 178.2

Incoming: # get_value(readout='Relative cell viability (%)', item= N#Cc1ccccc1-c1cc(-c2ccccn2)cn(-c2ccccc2)c1=O )
Outgoing: 104.7

Incoming: # get_value(readout='Relative cell viability (%)', item= CC1(C)[C@H](C(=O)O)N2C(=O)C[C@H]2S1(=O)=O )
Outgoing: 199.5

Incoming: # get_value(readout='Relative cell viability (%)', item= Cc1cnc(C(=O)O)c[n+]1[O-] )
Outgoing: 94.49

Incoming: # get_value(readout='Relative cell viability (%)', item= CC1(C)Cc2c(-c3ccccc3)c(-c3ccc(Cl)cc3)c(CC(=O)O)n2C1 )
Outgoing: 137.9

Incoming: # get_value(readout='Relative cell viability (%)', item= O=C1CCc2cc(OCCCCc3nnnn3C3CCCCC3)ccc2N1 )
Outgoing: 80.53

Incoming: # get_value(readout='Relative cell viability (%)', item= CCN(CC)CCOC(=O)C(c1ccccc1)c1ccccc1 [Adiphenine HCl] )
Outgoing: 119.6
